Reported Property: melting point

                      molecule  reported_property       result
0  COC(=O)C1=Cc2cc(Br)ccc2SCC1      melting point  94 to 95 °C

So for CC(=O)NCC=C(c1ccc(-c2ccccc2)cc1)c1ccc(-c2ccccc2)cc1 , the logged melting point turned out to be 246 to 249 °C

So for COc1cc(Br)c(OC)c(/C=C/C(=O)/C=C/c2cc(OC)cc(Br)c2OC)c1 , the logged melting point turned out to be 122 to 125 °C

So for O=C(NC1CC1)C1CC(=O)N(Cc2ccccc2)C1 (stereo not given) , the logged melting point turned out to be 94 to 96 °C

So for c1ccc(-c2noc(-c3cccc4ccccc34)n2)nc1 , the logged melting point turned out to be 132 to 136 °C

So for O=C(NCCCCCCCCNC(=O)c1ccc2c(c1)OCO2)c1ccc2c(c1)OCO2 , the logged melting point turned out to be 179 to 180 °C

So for OCc1ccc(C23CNCC2C3)cc1 (stereo not given) , the logged melting point turned out to be 80 to 82 °C

So for Cc1oc(-c2cccs2)nc1COc1ccc(Cn2cc(CCC(=O)O)c(-c3ccccc3)c2)cc1 , the logged melting point turned out to be 117 to 118 °C

So for CCCCc1nc2c(N)nc3cc(-c4ccccc4)ccc3c2n1CC(C)C , the logged melting point turned out to be > 250 °C

So for C[C@H]1CCCC[C@H]1Nc1c(C(N)=O)cnn2cccc12 , the logged melting point turned out to be 155 °C

Where these numbers come from: a melting point compilation (Tetko et al.; mined from patent text by program, amines drawn as free bases though some values may be those of a salt)
